B1: OR4K15 (parent)
chain: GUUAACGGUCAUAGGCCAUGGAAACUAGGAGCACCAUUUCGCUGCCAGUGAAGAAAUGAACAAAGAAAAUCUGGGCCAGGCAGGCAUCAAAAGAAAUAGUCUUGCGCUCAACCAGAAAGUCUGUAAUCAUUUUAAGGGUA

Variants of: B1
assay-protocol: self-cleavage, relative activity (ratio to wild type); higher = more cleavage; in vitro, sequencing; the parent is a self-cleaving ribozyme
Outcome label depends on self-cleavage relative to 1: at/above gives rule met, below gives rule not met.

Worked set:
1) GAUAACGGUCAUAGGCCAUGGAAACUAGGAGCACCAUUUCGCUGCCAGUGAAGAAAUGAACAAAGAAAAUCUGGGCCAGGCAGGCAUCAAAAGAUAUAGUCUUGCGCUCAACCAGAAAGUCUGUAAUCAUUUUAAGGGUA ... rule not met
2) GUUAACGGUCAUAGGCCAUGGAAACUAGGAGCACCAUAUCGCUGCCAGUGAAGAAAUGAACAAAGAAAAUCUGGGCCAGGCAGGCAUCAAAAGAAAUAGUCUUGCGCUCAACCAGAGAGUCUGUAAUCAUUUUAAGGGUA ... rule met
3) GUUAACAGUCAUAGGCCAUGGAAACUAGGAGCACCAUUUCGCUGCCAGUGAAGAAAUGAACAAAGAAAUUCUGGGCCAGGCAGGCAUCAAAAGAAAUAGUCUUGCGCUCAACCAGAAAGUCUGUAAUCAUUUUAAGGGUA ... rule met
4) GUUAACGGUCAUAGGCCAUGGGAACUAGGAGCACCAUUUCGCUGCCAGUGAAGAAAUGAACAAAGAAAAUCUGGGCCAGGCAGGCAUCAAAAGAAAUAGUCUUGCGCUCAACCAGAAAGUCUGUAAUCAUAUUAAGGGUA ... rule met

Exercise: Hello, I need to know if GCUAACGGUCAUAGGCCAUGGAAACAAGGAGCACCAUUUCGCUGCCAGUGAAGAAAUGAACAAAGAAAAUCUGGGCCAGGCAGGCAUCAAAAGAAAUAGUCUUGCGCUCAACCAGAAAGUCUGUAAUCAUUUUAAGGGUA has measured self-cleavage not below 1. Thanks!
Solution: rule not met

Exercise: Hello, I need to know if GUUAACGGUCAUAGGCCAUGGAAACUAGGAGCACCAUUUCGCUGCCAGCGAAGAAAUGAACAAAGAAAAUCUGGGCCAGGCAGGCAUCAAAAGAAAUAGUCUUGCGCUCAACCAGAAAGACUGUAAUCAUUUUAAGGGUA has measured self-cleavage not below 1. Thanks!
Solution: rule met

Exercise: Hello, I need to know if GUUAACGGUCAUAGGCCAUGGAAACUAGGAGCACCAUUUCGCUGCCAGUGAAGAAAUGAACAAAGAUAAUCUGGGCCAGGCAGGCAUCAAAAGAAAUAGUCUUGCGCUCGACCAGAAAGUCUGUAAUCAUUUUAAGGGUA has measured self-cleavage not below 1. Thanks!
Solution: rule not met
